Entry source: paper PMC2756588

- targetEntity: T1, Bzz1-2, P38822
- T1 sequence (P38822 568-633, looked up): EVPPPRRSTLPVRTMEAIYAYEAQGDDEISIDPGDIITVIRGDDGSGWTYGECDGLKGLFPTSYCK
- assayProcedure: SPOT array
- runConditions: median of control spots 4538
propertyLabel: SPOT intensity
Respond numerically, and do not add a unit to the figure.

[
  {
    "binder": "RRRIAYPFYPFKKLG",
    "SPOT intensity": 6
  }
]

INPUT: Supply SPOT intensity value. Item: NSVPIMPTLPPRPYI
OUTPUT: 0

INPUT: Supply SPOT intensity value. Item: ALKQKKIPPPFKPHL
OUTPUT: 0

INPUT: Supply SPOT intensity value. Item: TKIRRRPQQPLTDFT
OUTPUT: 6

INPUT: Supply SPOT intensity value. Item: DTFLPPPPPPPSNFE
OUTPUT: 0

INPUT: Supply SPOT intensity value. Item: EEEEEHPPLPARRKS
OUTPUT: 3
